# System: DU-145
# PROCEDURE_DETAILS: NCI tumour cell line growth inhibition, 48 h
The source made the active and inactive calls. Cut-off read from the data, not from the text of the source: active = GI50 up to about 1.1 µM and inactive = higher.
Field 'call' accepts active, inactive

For COC1CC(=O)C2C(=O)N(c3ccccc3)C(=O)C23C(C(=O)c2ccccc2)=C(C)NC13O (stereo unspecified) , what call appears in the results of this test?
inactive

For C[C@@]12CCC(=O)C=C1CC[C@H]1C2=CC[C@]2(C)C1CC[C@@]2(C)O (stereo partly specified) , what call appears in the results of this test?
inactive

For O=C(CCc1ccc(O)c(O)c1)OCCc1ccccc1 , what call appears in the results of this test?
inactive

For Cc1ccc2c(=O)c(C(=O)Nn3c(C)csc3=S)c[nH]c2n1 , what call appears in the results of this test?
inactive

For Cc1cccc(/C=N/NC(=S)N(C)CCc2ccccn2)n1 , what call appears in the results of this test?
active

For CN(CCCNC(=O)c1n[nH]c2c1ccc1ccccc12)CCCNC(=O)c1n[nH]c2c1ccc1ccccc12 , what call appears in the results of this test?
inactive

For CC(C)(C)c1ccc(-n2c3nc(=O)n(-c4ccccc4CO)c(=O)c-3cc3ccccc32)cc1 , what call appears in the results of this test?
inactive

For CC1=C2C(=C[C@@](C)(CO)[C@@H]2O)C(=O)[C@](C)(O)C12CC2 , what call appears in the results of this test?
active

For O=S(=O)(F)Cc1ccccc1 [PHENYLMETHYLSULFONYLFLUORIDE] , what call appears in the results of this test?
inactive

For CN(C)c1ccc2c3c(c(=O)oc2c1)CCC3 , what call appears in the results of this test?
inactive

For CCOC(=O)C(Cc1cn(S(=O)(=O)c2ccc(C)cc2)cn1)P(=O)(OCC)OCC (stereo unspecified) , what call appears in the results of this test?
inactive
